Entries and their IC50 values follow.
molecular target: HBV core protein (UniProt P03146); type: biochemical; conditions: read-out: Assembly Activity (IC50); BODIPY-FL labelled core protein, assembly started with NaCl, read after 6 min
Sequence (P03146 whole entry, looked up): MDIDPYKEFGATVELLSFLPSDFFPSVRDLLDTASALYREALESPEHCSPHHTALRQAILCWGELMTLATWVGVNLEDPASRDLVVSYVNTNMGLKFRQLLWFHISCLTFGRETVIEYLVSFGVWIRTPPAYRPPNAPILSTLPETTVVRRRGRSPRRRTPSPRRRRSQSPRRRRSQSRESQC

compound	IC50
Nc1nc2c(s1)CN(C(=O)c1cc3c(C(F)F)ccc(F)c3[nH]1)CC2	< 5 µM
Cc1cc(F)cc2[nH]c(C(=O)N3CCc4nc(NC5(CO)CCC5)sc4C3)cc12	< 5 µM
O=C(c1cc2ccc(Cl)cc2[nH]1)N1CCc2nc(NCC3(O)CCC3)sc2C1	5 to 10 µM
O=C(c1cc2ccccc2[nH]1)N1CCc2nc(N[C@H]3CC[C@@H](O)CC3)sc2C1	< 5 µM
O=C(Nc1nc2c(s1)CN(C(=O)c1cc3ccccc3[nH]1)CC2)NS(=O)(=O)C1CC1	< 5 µM
COCC(=O)Nc1nc2c(s1)CN(C(=O)c1cc3ccccc3[nH]1)CC2	< 5 µM
O=C(c1cc2ccccc2[nH]1)N1CCc2nc(NC3(c4c[nH]nn4)CC(F)(F)C3)sc2C1	< 5 µM
CC(C)[C@H](N)C(=O)OCC1(CNc2nc3c(s2)CN(C(=O)c2cc4ccccc4[nH]2)CC3)CC1	< 5 µM
O=C(c1cc2c(F)ccc(F)c2[nH]1)N1CCc2nc(NCC3(CO)CC3)sc2C1	< 5 µM
CC(=O)N1CCOC(CNc2nc3c(s2)CN(C(=O)c2cc4ccccc4[nH]2)CC3)C1 (stereo not drawn)	5 to 10 µM
CN(C)CC(=O)Nc1nc2c(s1)CN(C(=O)c1cc3ccccc3[nH]1)CC2	5 to 10 µM
CCc1cccc2[nH]c(C(=O)N3CCc4nc(N)sc4C3)cc12	< 5 µM
CC(F)(F)c1cc(F)cc2[nH]c(C(=O)N3CCc4nc(NCC5CCOC5)sc4C3)cc12 (stereo not drawn)	< 5 µM
CN1CCOCC1CNc1nc2c(s1)CN(C(=O)c1cc3ccccc3[nH]1)CC2 (stereo not drawn)	< 5 µM
CC(F)(F)c1cccc2[nH]c(C(=O)N3CCc4nc(NCC5(O)CCC5)sc4C3)cc12	< 5 µM
